target: BRD2(1,2) (Homo sapiens (Human), UniProt P25440); test: AlphaScreen binding of compounds on BRD2 (D1+D2); conditions: read-out: IC50 against BRD2(1,2)
Sequence (P25440 65-459): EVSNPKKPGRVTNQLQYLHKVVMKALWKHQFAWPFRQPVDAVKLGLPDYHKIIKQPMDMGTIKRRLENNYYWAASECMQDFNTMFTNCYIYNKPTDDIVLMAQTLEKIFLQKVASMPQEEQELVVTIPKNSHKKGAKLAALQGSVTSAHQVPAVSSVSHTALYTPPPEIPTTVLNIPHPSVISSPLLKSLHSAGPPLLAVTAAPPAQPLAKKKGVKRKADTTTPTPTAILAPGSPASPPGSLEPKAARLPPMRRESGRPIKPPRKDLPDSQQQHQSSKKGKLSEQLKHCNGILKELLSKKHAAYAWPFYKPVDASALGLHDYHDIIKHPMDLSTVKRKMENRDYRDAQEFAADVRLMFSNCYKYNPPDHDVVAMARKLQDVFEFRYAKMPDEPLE
PARAMETER: IC50

Known IC50 results, listed for orientation:
{"MOLECULE": "[2H]C([2H])([2H])n1cc(-c2cc(S(=O)(=O)N3CC[C@@H](O)C3)cnc2N2CCC3(CC2)CC3)c2cc[nH]c2c1=O", "TARGET_UNDER_TEST": "BRD2(1,2) (Homo sapiens (Human), UniProt P25440)", "IC50": "1.5 nM"}
{"MOLECULE": "[2H]C([2H])([2H])n1cc(-c2cc(NS(=O)(=O)CC)ccc2N2CCC3(CC2)CC3)c2cc[nH]c2c1=O", "TARGET_UNDER_TEST": "BRD2(1,2) (Homo sapiens (Human), UniProt P25440)", "IC50": "2.3 nM"}
{"MOLECULE": "[2H]C([2H])([2H])NS(=O)(=O)c1cnc(N2CCC3(CC2)CC3(F)F)c(-c2cn(C([2H])([2H])[2H])c(=O)c3[nH]ccc23)c1", "TARGET_UNDER_TEST": "BRD2(1,2) (Homo sapiens (Human), UniProt P25440)", "IC50": "1.6 nM"}

Ask | Supply measured IC50 of [2H]C([2H])([2H])n1cc(-c2cc(S(=O)(=O)CC)ccc2N2CCC3(CC2)CC3(F)F)c2cc[nH]c2c1=O in your reply.
Reply | 1.5 nM

Ask | Supply measured IC50 of [2H]C([2H])([2H])n1cc(-c2cc(S(=O)(=O)C(C)(C)C(=O)O)ccc2N2CCC3(CC2)CC3(F)F)c2cc[nH]c2c1=O in your reply.
Reply | 3 nM

Ask | Supply measured IC50 of [2H]C([2H])([2H])n1cc(-c2cc(S(=O)(=O)N3CC[C@H](O)C3)cnc2N2CCC3(CC2)CC3)c2cc[nH]c2c1=O in your reply.
Reply | 1.4 nM

The measured values listed here are drawn from patent US12162878B2.
